Every entry's value here was drawn from paper PMC10398685.

Reported microsomal CLint at 5 µM by item:
ASSAY_COMMENT: Microsomal stability, human
Assay type: in vitro ADME
MEASUREMENT_CONDITIONS: pooled liver microsomes, pH 7.4, 0.5 mg/ml human microsomes, triplicates
Numbers only here, please. The scale is µL/min/mg.

The cases that follow already have their microsomal CLint at 5 µM on record.
CCN(C[C@H]1O[C@@H](n2cc(C#Cc3cccnc3)c3c(N)ncnc32)[C@H](O)[C@@H]1O)S(=O)(=O)c1ccc(OC)c(C#N)c1 [Compound 12l] = 11.2
CCN(C[C@H]1O[C@@H](n2cc(C#Cc3ccc(N)nc3)c3c(N)ncnc32)[C@H](O)[C@@H]1O)S(=O)(=O)c1ccc(OC)c(C#N)c1 [Compound 12h] = 34.9
CCN(C[C@H]1O[C@@H](n2cc(C#Cc3ccc(C(N)=O)cc3)c3c(N)ncnc32)[C@H](O)[C@@H]1O)S(=O)(=O)c1ccc(OC)c(C#N)c1 [Compound 12o] = 53.8
CCN(C[C@H]1O[C@@H](n2cc(C#Cc3nc4ccccc4[nH]3)c3c(N)ncnc32)[C@H](O)[C@@H]1O)S(=O)(=O)c1ccc(OC)c(C#N)c1 [Compound 12a] = 77.3
CCN(C[C@H]1O[C@@H](n2cc(C#Cc3cnc4ccccc4c3)c3c(N)ncnc32)[C@H](O)[C@@H]1O)S(=O)(=O)c1ccc(OC)c(C#N)c1 [Compound 12e] = 19.6

Consider the record given below.
Which microsomal CLint at 5 µM value is on record for COc1ccc(S(=O)(=O)N(C)C[C@H]2O[C@@H](n3cc(C#Cc4cccnc4)c4c(N)ncnc43)[C@H](O)[C@@H]2O)cc1C#N [Compound 12s] ?
27.1

---

Reported Plasma stability Rem. at 120 min by item:
ASSAY_COMMENT: Plasma stability, mouse
Type: in vitro ADME
MEASUREMENT_CONDITIONS: 5uM, triplicates
Numbers only here, please. The scale is %.

Which Plasma stability Rem. at 120 min value is on record for CCN(C[C@H]1O[C@@H](n2cc(C#Cc3cnc4ccccc4c3)c3c(N)ncnc32)[C@H](O)[C@@H]1O)S(=O)(=O)c1ccc(OC)c(C#N)c1 [Compound 12e] ?
120.8

Which Plasma stability Rem. at 120 min value is on record for COc1ccc(S(=O)(=O)N(C)C[C@H]2O[C@@H](n3cc(C#Cc4cccnc4)c4c(N)ncnc43)[C@H](O)[C@@H]2O)cc1C#N [Compound 12s] ?
102.7

Which Plasma stability Rem. at 120 min value is on record for CCN(C[C@H]1O[C@@H](n2cc(C#Cc3nc4ccccc4[nH]3)c3c(N)ncnc32)[C@H](O)[C@@H]1O)S(=O)(=O)c1ccc(OC)c(C#N)c1 [Compound 12a] ?
119.2

Which Plasma stability Rem. at 120 min value is on record for CCN(C[C@H]1O[C@@H](n2cc(C#Cc3ccc(N)nc3)c3c(N)ncnc32)[C@H](O)[C@@H]1O)S(=O)(=O)c1ccc(OC)c(C#N)c1 [Compound 12h] ?
108.2

Which Plasma stability Rem. at 120 min value is on record for CCN(C[C@H]1O[C@@H](n2cc(C#Cc3ccc(C(N)=O)cc3)c3c(N)ncnc32)[C@H](O)[C@@H]1O)S(=O)(=O)c1ccc(OC)c(C#N)c1 [Compound 12o] ?
115.4
